# target: 5-hydroxytryptamine receptor 1A (Rattus norvegicus)
# Sequence (P19327 whole entry): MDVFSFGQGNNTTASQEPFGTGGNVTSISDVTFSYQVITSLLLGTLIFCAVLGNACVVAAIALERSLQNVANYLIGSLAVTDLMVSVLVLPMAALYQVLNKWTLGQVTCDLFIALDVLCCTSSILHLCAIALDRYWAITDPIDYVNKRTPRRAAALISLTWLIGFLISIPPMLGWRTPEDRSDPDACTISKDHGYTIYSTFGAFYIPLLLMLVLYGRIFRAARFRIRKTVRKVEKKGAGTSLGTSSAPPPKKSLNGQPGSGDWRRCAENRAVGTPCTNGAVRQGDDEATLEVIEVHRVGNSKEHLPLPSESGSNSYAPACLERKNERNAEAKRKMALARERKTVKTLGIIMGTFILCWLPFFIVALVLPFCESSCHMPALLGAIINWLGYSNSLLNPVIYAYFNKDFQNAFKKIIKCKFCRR
# assay comment: Compound was evaluated for its ability to displace [3H]8-OH-DPAT from serotonin 5-hydroxytryptamine 1A receptor in rat cerebral cortex membranes
pIC50: −log10 of the molar value.
quantity name: pIC50

P = COc1ccccc1N1CCN(CCCCN2C(=O)CC3(CCCC3)CC2=O)CC1
Q = COc1ccccc1N1CCN(CCCN2C(=O)CC3(CCCC3)CC2=O)CC1
Compare P and Q by numeric pIC50 and name the larger one. Identify your selection by its label.
P
(P: 8.70, Q: 7.10)
